assay: Acute toxicity in po dosed ICR mouse assessed as maximum tolerated dose measured after 7 days; assay type: organism-based; conditions: in vivo, time 7 day
Measurement type: MTD at 168 h

Compound | Observed result
COc1cc(/C=C/c2ccc(O)cc2)cc(OC)c1 [PTEROSTILBENE] | > 400 mg/kg
COc1cc(/C=C/c2ccc(OCCCCCCC(=O)NO)cc2)cc(OC)c1 | > 400 mg/kg
O=C(CCCCCCC(=O)Nc1ccccc1)NO [VORINOSTAT] | > 400 mg/kg

====

experiment: Volume of distribution at steady state in Sprague-Dawley rat at 2 mg/kg, iv measured upto 24 hrs by LC-MS/MS analysis; format: ADME, organism-based; settings: in vivo, read-out: Vdss

Substance smiles | Vd
COc1cc(/C=C/c2ccc(OCCCCCCC(=O)NO)cc2)cc(OC)c1 | 1.65 L/kg
